Reference for the values: patent US20220380463A1

# SUBJECT OF TEST: T1, human CD3 on CD3+ Jurkat cells (human, UniProt P07766 23-207)
# T1 construct: whole, on cells; Native CD3 complex on cells; the other CD3 chains are not specified for this assay; also called Human CD3+ Jurkat
# PROTOCOL TEXT: flow cytometry on CD3+ Jurkat cells, ratio of MFI at pH 6.0 to pH 7.4
Recorded MFI pH 6.0/MFI pH 7.4 for the following binders
# answer = number (no unit)

# BINDER, MFI pH 6.0/MFI pH 7.4
data = [
    ("SAD10320_P04_H11 (ADI-48662) (antibody, V domains shown, IgG; also called Ab116) VH: QVQLVQSGAEVKKPGASVKVSCKASGFNIKDYYMHWVRQAPGQRLEWMGWIDLENANTIYDAKFQGRVTITRDTSASTAYMELSSLRSEDTAVYYCARDAYGHVFYDVWGQGTLVTVSS VL: DIVMTQSPDSLAVSLGERATINCKSSQSLLNARTGKNYLAWYQQKPGQPPKLLIYWASTRESGVPDRFSGSGSGTDFTLTISSLQAEDVAVYYCKQSYQHRTFGGGTKVEIK", 1.8),
]

Noted for SAD10318_P01_A02 (ADI-48581) (antibody, V domains shown, IgG; also called Ab237) VH: QVQLVQSGAEVKKPGASVKVSCKASGFNIKDYYMHWVRQAPGQRLEWMGWIDLENANTIYDAKFQGRVTITRDTSASTAYMELSSLRSEDTAVYYCARDAYHHYFYDVWGQGTLVTVSS VL: DIVMTQSPDSLAVSLGERATINCKSSQSLLNARTHKNHLAWYQQKPGQPPKLLIYWASTRESGVPDRFSGSGSGTDFTLTISSLQAEDVAVYYCKQSYHHRTFGGGTKVEIK : its MFI pH 6.0/MFI pH 7.4 reads 45.5
